tested on: 945468-187-T-J2-PDC spheroids viability; experiment: Anticancer human tumor 945468-187-T-J2-PDC patient-derived rectal carcinoma cell line growth inhibition [PI3K]; settings: second compound 10 µM; first compound 1 µM; hits give low values; spheroids with HUVEC and MSC;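 note: spheroids exposed to compounds for seven days before reading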
measurement_kind: viability, T/C (%)
Reply with just the number (in %).

INPUT: Sample CNC(=O)c1ccc(N2C(=S)N(c3ccc(C#N)c(C(F)(F)F)c3)C(=O)C2(C)C)cc1F + CC(Nc1ncnc2nc[nH]c12)c1cc2cccc(Cl)c2c(=O)n1-c1ccccc1 — what was its viability, T/C?
OUTPUT: 102

INPUT: Sample CCCS(=O)(=O)Nc1ccc(F)c(C(=O)c2c[nH]c3ncc(-c4ccc(Cl)cc4)cc23)c1F + Cc1nc(NC(=O)N2CCCC2C(N)=O)sc1-c1ccnc(C(C)(C)C(F)(F)F)c1 — what was its viability, T/C?
OUTPUT: 55.6

INPUT: Sample Cn1ncc(Cl)c1-c1cc(C(=O)NC(CN)Cc2cccc(F)c2)sc1Cl (stereo unspecified) + CC(Nc1ncnc2nc[nH]c12)c1cc2cccc(Cl)c2c(=O)n1-c1ccccc1 — what was its viability, T/C?
OUTPUT: 94.2

INPUT: Sample C#Cc1c(F)ccc2cc(O)cc(-c3ncc4c(N5CC6CCC(C5)N6)nc(OCC56CCCN5CC(F)C6)nc4c3F)c12 (stereo unspecified) + CC(Nc1ncnc2nc[nH]c12)c1cc2cccc(Cl)c2c(=O)n1-c1ccccc1 — what was its viability, T/C?
OUTPUT: 99.7

INPUT: Sample CC(Cn1ccc(-c2ccc(C#N)c(Cl)c2)n1)NC(=O)c1cc(C(C)O)[nH]n1 (stereo unspecified) + Cc1nc(NC(=O)N2CCCC2C(N)=O)sc1-c1ccnc(C(C)(C)C(F)(F)F)c1 — what was its viability, T/C?
OUTPUT: 68

INPUT: Sample CC1(C)CCC(CN2CCN(c3ccc(C(=O)NS(=O)(=O)c4ccc(NCC5CCOCC5)c([N+](=O)[O-])c4)c(Oc4cnc5[nH]ccc5c4)c3)CC2)=C(c2ccc(Cl)cc2)C1 + CC(Nc1ncnc2nc[nH]c12)c1cc2cccc(Cl)c2c(=O)n1-c1ccccc1 — what was its viability, T/C?
OUTPUT: 124

INPUT: Sample Cn1nccc1Nc1nccc(-c2ccn(C(CO)c3ccc(Cl)c(F)c3)c(=O)c2)n1 (stereo unspecified) + Cc1nc(NC(=O)N2CCCC2C(N)=O)sc1-c1ccnc(C(C)(C)C(F)(F)F)c1 — what was its viability, T/C?
OUTPUT: 86.9

INPUT: Sample CC(C)NCC(C(=O)N1CCN(c2ncnc3c2C(C)CC3O)CC1)c1ccc(Cl)cc1 (stereo unspecified) + Cc1nc(NC(=O)N2CCCC2C(N)=O)sc1-c1ccnc(C(C)(C)C(F)(F)F)c1 — what was its viability, T/C?
OUTPUT: 88.5

INPUT: Sample CCCS(=O)(=O)Nc1ccc(F)c(C(=O)c2c[nH]c3ncc(-c4ccc(Cl)cc4)cc23)c1F + CC(Nc1ncnc2nc[nH]c12)c1cc2cccc(Cl)c2c(=O)n1-c1ccccc1 — what was its viability, T/C?
OUTPUT: 95.6

INPUT: Sample CNC(=O)c1ccc(N2C(=S)N(c3ccc(C#N)c(C(F)(F)F)c3)C(=O)C2(C)C)cc1F + Cc1nc(NC(=O)N2CCCC2C(N)=O)sc1-c1ccnc(C(C)(C)C(F)(F)F)c1 — what was its viability, T/C?
OUTPUT: 73.5

INPUT: Sample C[C@@H](NC(=O)c1ncnc(N)c1Cl)c1ncc(C(=O)Nc2cc(C(F)(F)F)c(Cl)cn2)s1 + Cc1nc(NC(=O)N2CCCC2C(N)=O)sc1-c1ccnc(C(C)(C)C(F)(F)F)c1 — what was its viability, T/C?
OUTPUT: 68.7

// data source = PubChem BioAssay AID1963972
